system: lung cancer cells NCI-H358; experiment: Cell proliferation assay, CELL TITER-GLO (CTG) luminescence, NCI-H358; assay type: cell-based; conditions: Homo sapiens, NCI-H358, ultra-low adsorption plate, cultured for 96 hrs
pIC50: −log10 of the molar value.
If the reported pIC50 equals or exceeds 8, assign condition met. If not, assign condition not met.

Please review the entries below; each comes with its answer.
1. COc1ccc2c(c1)[C@@H](N)C1(CCN(c3ncc(C#CCOc4ccc(C(N)=O)cc4)nc3CO)CC1)C2	condition met
2. CC(=O)Nc1cccc(OCC#Cc2cnc(N3CCC4(CC3)Cc3ccccc3[C@H]4N)c(CO)n2)c1	condition met
3. CN(CC#Cc1cnc(N2CCC3(CC2)Cc2ccccc2[C@H]3N)c(CO)n1)c1ccc(C(N)=O)cc1	condition not met
4. NC(=O)c1ccc(OCC#Cc2cnc(N3CCC4(CC3)Cc3ccccc3[C@H]4N)c(CO)n2)cc1Cl	condition met
5. CNC(=O)c1ccc(OCC#Cc2cnc(N3CCC4(CC3)Cc3ccccc3[C@H]4N)c(CO)n2)cc1	condition met

Exercise: Please check the record `N[C@@H]1c2ccccc2CC12CCN(c1ncc(C#CCOc3ccc4[nH]ncc4c3)nc1CO)CC2` and state if its pIC50 is at or above 8.
Solution: condition met

Exercise: Please check the record `Nc1cc(OCC#Cc2cnc(N3CCC4(CC3)Cc3ccccc3[C@H]4N)c(CO)n2)ccn1` and state if its pIC50 is at or above 8.
Solution: condition met

Exercise: Please check the record `NC(=O)c1ccc(OCC#Cc2cnc(N3CCC4(CC3)Cc3ccccc3[C@H]4N)cn2)cc1Cl` and state if its pIC50 is at or above 8.
Solution: condition not met

====

assay: In vitro metabolic stability in liver microsomes, dog; assay type: in vitro ADME; details: dog, microsomes, pH 7.3
Rule: measured microsomal CLint at 2 µM below 8 µL/min/mg gets 1.0; anything equal to or greater than 8 µL/min/mg gets 0.0.

1) N[C@@H]1c2ccccc2CC12CCN(c1ncc(C#CCOc3ccc(C(O)C(F)(F)F)cc3)nc1CO)CC2 (stereo partly shown)	1.0

Exercise: Just wondering, is microsomal CLint at 2 µM of `Cn1nccc1NCC#Cc1cnc(N2CCC3(CC2)Cc2ccccc2[C@H]3N)c(CO)n1` below 8 µL/min/mg?
Solution: 0.0

Exercise: Just wondering, is microsomal CLint at 2 µM of `NC(=O)c1cccc(NCC#Cc2cnc(N3CCC4(CC3)Cc3ccccc3[C@H]4N)c(CO)n2)c1` below 8 µL/min/mg?
Solution: 0.0

Exercise: Just wondering, is microsomal CLint at 2 µM of `NC(=O)c1ccc(OCC#Cc2cnc(N3CCC4(CC3)Cc3ccccc3[C@H]4N)c(CO)n2)cc1Cl` below 8 µL/min/mg?
Solution: 0.0

Exercise: Just wondering, is microsomal CLint at 2 µM of `NC(=O)Cc1cccc(OCC#Cc2cnc(N3CCC4(CC3)Cc3ccccc3[C@H]4N)c(CO)n2)c1` below 8 µL/min/mg?
Solution: 0.0

Exercise: Just wondering, is microsomal CLint at 2 µM of `NC(=O)c1cccc(OCC#Cc2cnc(N3CCC4(CC3)Cc3ccccc3[C@H]4N)c(CO)n2)c1` below 8 µL/min/mg?
Solution: 1.0

====

In this section, each of the compounds is paired with its reported pIC50.
biological target: SHP2 (Homo sapiens (Human)); experiment: SHP2 allosteric inhibitory enzyme activity assay (DiFMUP fluorescence); type: biochemical; conditions: read-out: SHP2 enzymatic activity IC50
Sequence (Q06124 whole entry): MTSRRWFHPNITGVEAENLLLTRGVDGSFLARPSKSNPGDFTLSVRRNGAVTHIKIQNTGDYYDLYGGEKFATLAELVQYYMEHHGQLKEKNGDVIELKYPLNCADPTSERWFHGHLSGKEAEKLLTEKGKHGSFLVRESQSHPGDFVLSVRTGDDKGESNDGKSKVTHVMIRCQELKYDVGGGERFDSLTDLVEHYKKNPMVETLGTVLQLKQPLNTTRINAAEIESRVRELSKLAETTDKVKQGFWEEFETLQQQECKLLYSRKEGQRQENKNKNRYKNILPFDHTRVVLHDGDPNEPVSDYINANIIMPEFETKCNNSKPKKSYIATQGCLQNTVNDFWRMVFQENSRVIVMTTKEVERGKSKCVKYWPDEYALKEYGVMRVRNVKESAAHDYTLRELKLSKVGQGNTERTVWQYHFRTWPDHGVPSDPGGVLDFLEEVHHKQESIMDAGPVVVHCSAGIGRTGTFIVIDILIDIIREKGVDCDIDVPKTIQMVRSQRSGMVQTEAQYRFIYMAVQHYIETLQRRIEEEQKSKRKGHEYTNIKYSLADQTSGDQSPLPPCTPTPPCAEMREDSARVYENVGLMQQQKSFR
Recall that pIC50 is obtained by taking minus log10 of the concentration measured in molar.

1. N[C@@H]1c2ccccc2CC12CCN(c1ncc(C#CCOc3ccc(O)cn3)nc1CO)CC2 [Compound A75]	8.11
2. CC(=O)N1CCN(c2ccc(OCC#Cc3cnc(N4CCC5(CC4)Cc4ccccc4[C@H]5N)c(CO)n3)cc2)CC1 [Compound A21]	8.68
3. NC(=O)c1ccc(OCC#Cc2cnc(N3CCC4(CC3)Cc3ccccc3[C@H]4N)c(CO)n2)cc1F [Compound A50]	8.77
4. N[C@@H]1c2ccccc2CC12CCN(c1ncc(C#CCNc3ccccc3)nc1CO)CC2 [Compound A07]	8.60
5. NC(=O)c1ccc(OCC#Cc2cnc(N3CCC4(CC3)Cc3ccccc3[C@H]4N)cn2)cc1Cl [Compound A62]	8.82
6. N[C@@H]1c2ccccc2CC12CCN(c1ncc(C#CCNC(=O)c3ccccc3)nc1CO)CC2 [Compound A45]	8.33
7. N[C@@H]1c2ccccc2CC12CCN(c1ncc(C#CCNc3ncco3)nc1CO)CC2 [Compound A60]	8.80
8. N[C@@H]1c2ccccc2CC12CCN(c1ncc(C#CCOc3ccncc3)nc1CO)CC2 [Compound A18]	7.46

For this compound ( Cc1cc(OCC#Cc2cnc(N3CCC4(CC3)Cc3ccccc3[C@H]4N)c(CO)n2)ccc1C(N)=O [Compound A74] ), measured pIC50 is 8.96

For this compound ( COc1ccc(OCC#Cc2cnc(N3CCC4(CC3)Cc3ccccc3[C@H]4N)c(CO)n2)cc1 [Compound A09] ), measured pIC50 is 9.05

For this compound ( N[C@@H]1c2ccccc2CC12CCN(c1ncc(C#CCOc3cccc(C(F)(F)F)c3)nc1CO)CC2 [Compound A13] ), measured pIC50 is 8.24

For this compound ( CN(CC#Cc1cnc(N2CCC3(CC2)Cc2ccccc2[C@H]3N)c(CO)n1)c1ccc(C(N)=O)cc1 [Compound A55] ), measured pIC50 is 8.57

For this compound ( NC(=O)c1ccc(NCC#Cc2cnc(N3CCC4(CC3)Cc3ccccc3[C@H]4N)c(CO)n2)cc1 [Compound A48] ), measured pIC50 is 8.70

Values were extracted from patent US20230339882A1.
